# target-of-assay: T1, IL10Rα and IL2Rγ on human primary cells (CD8 T cells, CD4 T cells, monocytes) (human) (UniProt Q13651)
# T1 sequence (looked up) 1: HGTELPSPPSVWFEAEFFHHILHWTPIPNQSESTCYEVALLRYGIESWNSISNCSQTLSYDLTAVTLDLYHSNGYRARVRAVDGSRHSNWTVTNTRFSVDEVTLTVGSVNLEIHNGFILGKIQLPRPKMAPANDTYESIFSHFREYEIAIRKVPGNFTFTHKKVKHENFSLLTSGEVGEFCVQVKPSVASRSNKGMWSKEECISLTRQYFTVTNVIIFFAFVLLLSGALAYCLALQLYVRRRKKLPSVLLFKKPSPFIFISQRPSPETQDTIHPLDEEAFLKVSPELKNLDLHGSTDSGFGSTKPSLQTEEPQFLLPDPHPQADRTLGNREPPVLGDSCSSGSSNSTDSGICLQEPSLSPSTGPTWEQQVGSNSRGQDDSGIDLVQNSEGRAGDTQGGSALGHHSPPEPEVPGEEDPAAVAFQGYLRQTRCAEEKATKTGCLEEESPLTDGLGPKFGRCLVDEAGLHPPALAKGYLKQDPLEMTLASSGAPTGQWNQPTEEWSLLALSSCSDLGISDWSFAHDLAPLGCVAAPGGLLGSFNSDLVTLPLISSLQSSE
# T1 sequence (looked up) 2: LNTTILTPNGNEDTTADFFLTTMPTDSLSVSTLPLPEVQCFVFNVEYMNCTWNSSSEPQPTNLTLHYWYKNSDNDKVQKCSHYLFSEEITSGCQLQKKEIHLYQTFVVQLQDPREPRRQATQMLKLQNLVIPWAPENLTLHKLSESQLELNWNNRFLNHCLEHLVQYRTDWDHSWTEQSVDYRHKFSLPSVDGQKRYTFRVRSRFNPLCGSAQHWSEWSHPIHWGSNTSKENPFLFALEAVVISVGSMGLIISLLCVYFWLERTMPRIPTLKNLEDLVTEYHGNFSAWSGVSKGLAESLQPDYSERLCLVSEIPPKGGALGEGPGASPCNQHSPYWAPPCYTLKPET
# test-name: cell-based or functional assay
Measured pSTAT3 (MFI) in CD8 T cells at 0.01 µM, listed per entry.
Entry rule: numbers only, all in MFI.

INSERT INTO results (binder, reported) VALUES
  ('hIL10Ra_VHH14-hIL2Rg_VHH19, linker GGSGGS, tag his (bispecific antibody, not shown: small tags and cut ends) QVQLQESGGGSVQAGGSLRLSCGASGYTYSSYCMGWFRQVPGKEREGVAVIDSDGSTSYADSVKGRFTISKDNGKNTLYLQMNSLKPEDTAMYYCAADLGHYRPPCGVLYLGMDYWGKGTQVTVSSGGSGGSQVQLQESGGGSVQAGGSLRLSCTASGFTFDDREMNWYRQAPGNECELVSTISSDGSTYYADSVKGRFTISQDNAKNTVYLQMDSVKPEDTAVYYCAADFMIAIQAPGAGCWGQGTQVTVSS', 7660),
  ('hIL10Ra_VHH14-hIL2Rg_VHH19, linker GGGS, tag Fc (Fc fusion, not shown: a dimerising Fc or GST) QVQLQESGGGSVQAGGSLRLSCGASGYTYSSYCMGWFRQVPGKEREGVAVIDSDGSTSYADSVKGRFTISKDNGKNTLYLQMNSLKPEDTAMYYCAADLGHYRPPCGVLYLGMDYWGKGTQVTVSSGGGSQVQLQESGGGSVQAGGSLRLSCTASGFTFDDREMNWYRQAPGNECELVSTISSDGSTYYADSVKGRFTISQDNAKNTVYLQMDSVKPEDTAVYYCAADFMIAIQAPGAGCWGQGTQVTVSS', 7800);

Next, consider the following binder.
Sure, the documented pSTAT3 (MFI) in CD8 T cells at 0.01 µM for hIL10Ra_VHH14-hIL2Rg_VHH19, no linker, tag his (bispecific antibody, not shown: small tags and cut ends) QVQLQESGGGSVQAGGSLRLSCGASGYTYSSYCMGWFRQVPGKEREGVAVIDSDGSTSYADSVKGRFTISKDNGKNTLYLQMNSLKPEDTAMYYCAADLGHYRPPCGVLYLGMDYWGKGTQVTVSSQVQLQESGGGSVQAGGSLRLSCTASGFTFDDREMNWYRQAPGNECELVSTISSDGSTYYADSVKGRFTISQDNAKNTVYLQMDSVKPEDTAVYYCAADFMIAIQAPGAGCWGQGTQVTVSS is 7800
